# Test system: DU-145 prostate
# measurement.notes: NCI tumour cell line growth inhibition, 48 h; in the data active = GI50 below about 0.43 µM; inactive = the rest
Returns: one label drawn from yes (active), no (inactive)

Answered cases to consult:
{"columns": ["compound", "assay.target", "cat"],
 "data": [
  ["C#CC(=O)N(c1ccc(OC)cc1OC)C(C(=O)NCC(=O)OCC)c1cccs1 (centres undefined)", "DU-145 prostate", "no"],
  ["CCN(CC)c1ccc(/C=N/NC(=O)c2ccc(S(N)(=O)=O)cc2)c(O)c1", "DU-145 prostate", "no"],
  ["CCCn1cnc2c(c1=N)C(c1ccc(F)cc1)c1sc3c(CC)cccc3c1O2 (centres undefined)", "DU-145 prostate", "yes"]
]}

Input: // param item: CNC(=O)c1cc(Oc2ccc3nc(NC(=O)c4ccc(CN5CCCN(C)CC5)c(C(F)(F)F)c4)sc3c2)ccn1 ; yields the recorded call
Output: no
